The origin of these recorded values is ChEMBL document CHEMBL2429758.

Form field: fold change (FC) (one value per entry).
Biological target: UniProtKB Q16236
Assay: Induction of Nrf2-mediated ARE activity in human HepG2-ARE-C8 cells at 10 uM after 12 hrs by luciferase reporter gene assay relative to control
Type: cell-based
reported_metric: fold change (FC)

> print(dat)
                                    compound   reported.metric  measured.value
 1  COc1cccc(C(=O)/C=C2\NCC3c4ccccc4CCN3C2=O)c1 (stereo not drawn)  fold change (FC)              10
 2  COc1cc2c(cc1OC)C1CN/C(=C\C(=O)c3ccccc3)C(=O)N1CC2 (stereo not drawn)  fold change (FC)            1.67
 3  COc1ccc2c(c1)CCN1C(=O)/C(=C/C(=O)c3cccc(F)c3)NCC21 (stereo not drawn)  fold change (FC)            6.66
 4  COc1cccc2c1CCN1C(=O)/C(=C/C(=O)c3cccc(F)c3)NCC21 (stereo not drawn)  fold change (FC)             3.7
 5  O=C(/C=C1\NCC2c3ccccc3CCN2C1=O)c1ccc(Cl)cc1 (stereo not drawn)  fold change (FC)               4
 6  COc1ccc2c(c1)C1CN/C(=C\C(=O)c3ccc(F)cc3)C(=O)N1CC2 (stereo not drawn)  fold change (FC)            2.48
 7                      CC(C)(C)c1cc(O)ccc1O  fold change (FC)             1.5
 8  COc1cccc2c1CCN1C(=O)/C(=C/C(=O)c3ccccc3)NCC21 (stereo not drawn)  fold change (FC)            6.93
 9  COc1ccccc1C(=O)/C=C1\NCC2c3ccccc3CCN2C1=O (stereo not drawn)  fold change (FC)            1.99
10  COc1cccc(C(=O)/C=C2\NCC3c4cc(OC)ccc4CCN3C2=O)c1 (stereo not drawn)  fold change (FC)            1.59
11  COc1ccc2c(c1)CCN1C(=O)/C(=C/C(=O)c3ccccc3)NCC21 (stereo not drawn)  fold change (FC)            5.36
12  O=C(/C=C1\NCC2c3ccccc3CCN2C1=O)c1ccccc1[N+](=O)[O-] (stereo not drawn)  fold change (FC)             2.8
13   C[S+]([O-])CCCCN=C=S (stereo not drawn)  fold change (FC)            8.35
14  O=C(/C=C1\NCC2c3ccccc3CCN2C1=O)c1cccc([N+](=O)[O-])c1 (stereo not drawn)  fold change (FC)            18.5
15  COc1ccc2c(c1)C1CN/C(=C\C(=O)c3ccccc3F)C(=O)N1CC2 (stereo not drawn)  fold change (FC)            12.4
16  O=C(/C=C1\NCC2c3ccccc3CCN2C1=O)c1ccccc1 (stereo not drawn)  fold change (FC)            26.9
17  Cc1ccc(C(=O)/C=C2\NCC3c4ccccc4CCN3C2=O)cc1 (stereo not drawn)  fold change (FC)            5.22
18  O=C(/C=C1\NCC2c3ccccc3CCN2C1=O)c1ccc(F)c(F)c1 (stereo not drawn)  fold change (FC)            6.38
19  O=C(/C=C1\NCC2c3ccccc3CCN2C1=O)c1cccc(F)c1 (stereo not drawn)  fold change (FC)              33
20  COc1ccc2c(c1)C1CN/C(=C\C(=O)c3cccc(Cl)c3)C(=O)N1CC2 (stereo not drawn)  fold change (FC)            7.28
21  O=C(/C=C1\NCC2c3ccccc3CCN2C1=O)c1ccccc1F (stereo not drawn)  fold change (FC)            16.9
22  COc1ccc2c(c1)C1CN/C(=C\C(=O)c3ccccc3)C(=O)N1CC2 (stereo not drawn)  fold change (FC)              13
23  COc1cc2c(cc1OC)C1CN/C(=C\C(=O)c3ccccc3F)C(=O)N1CC2 (stereo not drawn)  fold change (FC)             1.1

====

Molecular target: Nuclear factor erythroid 2-related factor 2 (Homo sapiens)
Sequence (whole entry): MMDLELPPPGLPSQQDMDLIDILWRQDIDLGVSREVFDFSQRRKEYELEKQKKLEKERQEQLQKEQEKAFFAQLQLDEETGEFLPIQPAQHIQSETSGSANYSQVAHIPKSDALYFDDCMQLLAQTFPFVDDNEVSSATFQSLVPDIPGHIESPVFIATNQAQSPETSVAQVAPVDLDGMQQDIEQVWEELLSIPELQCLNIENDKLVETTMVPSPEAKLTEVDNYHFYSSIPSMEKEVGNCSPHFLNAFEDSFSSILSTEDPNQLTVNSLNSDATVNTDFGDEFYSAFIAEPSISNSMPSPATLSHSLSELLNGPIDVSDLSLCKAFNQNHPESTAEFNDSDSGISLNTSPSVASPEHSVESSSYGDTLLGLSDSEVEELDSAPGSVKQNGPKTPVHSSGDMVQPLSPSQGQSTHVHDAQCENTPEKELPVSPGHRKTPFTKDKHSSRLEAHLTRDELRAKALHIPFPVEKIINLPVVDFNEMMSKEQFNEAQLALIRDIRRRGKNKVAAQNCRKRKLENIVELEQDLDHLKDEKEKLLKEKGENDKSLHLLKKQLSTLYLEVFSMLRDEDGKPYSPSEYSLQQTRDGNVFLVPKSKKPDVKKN
Assay: Induction of Nrf2-mediated ARE activity in human HepG2-ARE-C8 cells at 1 uM after 12 hrs by luciferase reporter gene assay relative to control
Type: cell-based
reported_metric: fold change (FC)

> print(dat)
                                    compound   reported.metric  measured.value
 1  COc1cccc2c1CCN1C(=O)/C(=C/C(=O)c3cccc(F)c3)NCC21 (stereo not given)  fold change (FC)            4.02
 2  Cc1ccc(C(=O)/C=C2\NCC3c4ccccc4CCN3C2=O)cc1 (stereo not given)  fold change (FC)            3.25
 3  COc1cccc(C(=O)/C=C2\NCC3c4cc(OC)ccc4CCN3C2=O)c1 (stereo not given)  fold change (FC)            1.24
 4  O=C(/C=C1\NCC2c3ccccc3CCN2C1=O)c1cccc([N+](=O)[O-])c1 (stereo not given)  fold change (FC)            7.22
 5  O=C(/C=C1\NCC2c3ccccc3CCN2C1=O)c1ccc(Cl)cc1Cl (stereo not given)  fold change (FC)            1.42
 6  COc1ccc2c(c1)C1CN/C(=C\C(=O)c3ccc(F)cc3)C(=O)N1CC2 (stereo not given)  fold change (FC)            1.74
 7  COc1cc2c(cc1OC)C1CN/C(=C\C(=O)c3cccc(F)c3)C(=O)N1CC2 (stereo not given)  fold change (FC)            1.05
 8  COc1ccc(C(=O)/C=C2\NCC3c4ccccc4CCN3C2=O)cc1OC (stereo not given)  fold change (FC)            1.93
 9  COc1cc2c(cc1OC)C1CN/C(=C\C(=O)c3ccccc3)C(=O)N1CC2 (stereo not given)  fold change (FC)            1.35
10  O=C(/C=C1\NCC2c3ccccc3CCN2C1=O)c1ccc(Cl)cc1 (stereo not given)  fold change (FC)            2.61

====

Target: Nuclear factor erythroid 2-related factor 2 (Homo sapiens) (UniProt Q16236)
Sequence (whole entry): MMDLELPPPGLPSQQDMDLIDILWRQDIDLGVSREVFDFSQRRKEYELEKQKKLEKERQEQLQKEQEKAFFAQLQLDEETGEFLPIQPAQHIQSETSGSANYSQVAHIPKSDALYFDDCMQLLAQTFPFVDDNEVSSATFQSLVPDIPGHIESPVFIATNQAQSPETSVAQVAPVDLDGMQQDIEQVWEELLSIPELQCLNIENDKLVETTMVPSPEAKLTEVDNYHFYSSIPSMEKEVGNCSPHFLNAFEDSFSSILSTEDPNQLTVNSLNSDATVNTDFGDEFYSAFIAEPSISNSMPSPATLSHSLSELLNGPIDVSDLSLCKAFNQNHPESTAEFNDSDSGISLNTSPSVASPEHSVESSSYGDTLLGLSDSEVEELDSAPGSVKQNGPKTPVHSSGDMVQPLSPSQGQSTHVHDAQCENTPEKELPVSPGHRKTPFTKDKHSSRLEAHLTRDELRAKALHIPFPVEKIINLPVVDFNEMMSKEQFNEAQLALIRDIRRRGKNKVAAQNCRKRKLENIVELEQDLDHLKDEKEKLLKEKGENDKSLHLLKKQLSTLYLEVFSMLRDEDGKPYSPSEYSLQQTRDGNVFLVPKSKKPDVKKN
Test: Induction of Nrf2-mediated ARE activity in human HepG2-ARE-C8 cells at 0.1 uM after 12 hrs by luciferase reporter gene assay relative to control
Assay type: cell-based
reported_metric: fold change (FC)

> print(dat)
                                    compound   reported.metric  measured.value
 1  COc1ccc2c(c1)CCN1C(=O)/C(=C/C(=O)c3cccc(F)c3)NCC21 (stereo not given)  fold change (FC)            5.19
 2  O=C(/C=C1\NCC2c3ccccc3CCN2C1=O)c1cccc(C(F)(F)F)c1 (stereo not given)  fold change (FC)             1.7
 3  COc1cccc(C(=O)/C=C2\NCC3c4cc(OC)ccc4CCN3C2=O)c1 (stereo not given)  fold change (FC)            1.21
 4  COc1ccc2c(c1)C1CN/C(=C\C(=O)c3ccccc3F)C(=O)N1CC2 (stereo not given)  fold change (FC)            2.75
 5  O=C(/C=C1\NCC2c3ccccc3CCN2C1=O)c1cccc(Br)c1 (stereo not given)  fold change (FC)             3.4
 6  O=C(/C=C1\NCC2c3ccccc3CCN2C1=O)c1ccccc1F (stereo not given)  fold change (FC)            3.64
 7  COc1cccc(C(=O)/C=C2\NCC3c4ccccc4CCN3C2=O)c1 (stereo not given)  fold change (FC)            3.69
 8  O=C(/C=C1\NCC2c3ccccc3CCN2C1=O)c1ccccc1 (stereo not given)  fold change (FC)            5.44
 9  COc1cc2c(cc1OC)C1CN/C(=C\C(=O)c3ccccc3F)C(=O)N1CC2 (stereo not given)  fold change (FC)             0.8
10  COc1ccc(C(=O)/C=C2\NCC3c4ccccc4CCN3C2=O)cc1OC (stereo not given)  fold change (FC)            1.77
